# test.name: In-vivo pharmacokinetic parameters in mice
# Design: species or system Balb-c mice
# measurement.context: male, Balb-c, mouse, plasma, IV, 1 mg/kg
Simple rule here: AUC(0-inf) less than 0.4 µM·h is y, otherwise n.

INSERT INTO assay_data (structure_smiles, discrete_label) VALUES
  ('COc1cc(F)cc([C@@H](CO)NC(=O)[C@@H](C)N2Cc3ccc(-c4nc(NC5CCOCC5)ncc4F)c(F)c3C2=O)c1', 'y'),
  ('COc1cc(F)cc([C@@H](CO)NC(=O)[C@@H](C)N2Cc3ccc(-c4nc(NC5CCOCC5)ncc4Cl)nc3C2=O)c1', 'y'),
  ('COc1cc(F)cc([C@@H](CO)NC(=O)[C@@H](C)N2Cc3ccc(-c4nc(NC5CCOCC5)ncc4Cl)c(F)c3C2=O)c1', 'y'),
  ('C[C@H](C(=O)N[C@H](CO)c1cccc(Cl)c1)N1Cc2ccc(-c3nc(NC4CCOCC4)ncc3Cl)c(F)c2C1=O', 'n'),
  ('Cc1cccc([C@@H](CO)NC(=O)[C@@H](C)N2Cc3ccc(-c4nc(NC5CCOCC5)ncc4Cl)c(F)c3C2=O)c1', 'y'),
  ('Cc1cccc([C@@H](CO)NC(=O)[C@@H](C)N2Cc3ccc(-c4nc(Nc5ccnn5C)ncc4Cl)c(F)c3C2=O)c1', 'y');

Next item in the queue.
Given C[C@H](C(=O)N[C@H](CO)c1cccc(Cl)c1)N1Cc2ccc(-c3nc(NC4CCOCC4)ncc3F)c(F)c2C1=O , is recorded AUC(0-inf) strictly lower than 0.4 µM·h?
n

----------
Catalogue of compounds with associated AUC(0-inf)
# test.name: In-vivo pharmacokinetic parameters in SD rats
# measurement.context: male, rat, plasma, 1 mg/kg, IV, 1 mpk
Report as a plain number; the unit µM·h is understood.

INSERT INTO assay_data (structure_smiles, reported) VALUES
  ('COc1cc(F)cc([C@@H](CO)NC(=O)[C@@H](C)N2Cc3ccc(-c4nc(NC5CCOCC5)ncc4F)c(F)c3C2=O)c1', 0.304);

Note: attention shifts to another entry.
Which AUC(0-inf) value is on record for C[C@H](C(=O)N[C@H](CO)c1cccc(Cl)c1)N1Cc2ccc(-c3nc(NC4CCOCC4)ncc3F)c(F)c2C1=O ?
0.538

----------
Catalogue of compounds with associated AUC(0-t)
# test.name: In-vivo pharmacokinetic parameters in mice
# Set-up: species or system Balb-c mice
# measurement.context: male, Balb-c, mouse, plasma, IV, 1 mg/kg
Report as a plain number; the unit nM·h is understood.

INSERT INTO results (structure_smiles, reported) VALUES
  ('COc1cc(F)cc([C@@H](CO)NC(=O)[C@@H](C)N2Cc3ccc(-c4nc(NC5CCOCC5)ncc4Cl)c(F)c3C2=O)c1', 274);

Note: attention shifts to another entry.
Which AUC(0-t) value is on record for Cc1cccc([C@@H](CO)NC(=O)[C@@H](C)N2Cc3ccc(-c4nc(Nc5ccnn5C)ncc4Cl)c(F)c3C2=O)c1 ?
268

----------
# test.name: In-vivo pharmacokinetic parameters in mice
# Set-up: species or system Balb-c mice
# measurement.context: male, Balb-c, mouse, plasma, IV, 1 mg/kg
property: half-life (min)
Report as a plain number; the unit min is understood.

Which half-life value is on record for C[C@H](C(=O)N[C@H](CO)c1cccc(Cl)c1)N1Cc2ccc(-c3nc(NC4CCOCC4)ncc3Cl)c(F)c2C1=O ?
48

Which half-life value is on record for Cc1cccc([C@@H](CO)NC(=O)[C@@H](C)N2Cc3ccc(-c4nc(NC5CCOCC5)ncc4Cl)c(F)c3C2=O)c1 ?
42

Which half-life value is on record for COc1cc(F)cc([C@@H](CO)NC(=O)[C@@H](C)N2Cc3ccc(-c4nc(NC5CCOCC5)ncc4Cl)c(F)c3C2=O)c1 ?
24

// provenance: patent US20230312564A1
